src = paper PMC4570246

# β-tubulin (Homo sapiens, UniProt P07437): Kd values follow
# Sequence (P07437 whole entry): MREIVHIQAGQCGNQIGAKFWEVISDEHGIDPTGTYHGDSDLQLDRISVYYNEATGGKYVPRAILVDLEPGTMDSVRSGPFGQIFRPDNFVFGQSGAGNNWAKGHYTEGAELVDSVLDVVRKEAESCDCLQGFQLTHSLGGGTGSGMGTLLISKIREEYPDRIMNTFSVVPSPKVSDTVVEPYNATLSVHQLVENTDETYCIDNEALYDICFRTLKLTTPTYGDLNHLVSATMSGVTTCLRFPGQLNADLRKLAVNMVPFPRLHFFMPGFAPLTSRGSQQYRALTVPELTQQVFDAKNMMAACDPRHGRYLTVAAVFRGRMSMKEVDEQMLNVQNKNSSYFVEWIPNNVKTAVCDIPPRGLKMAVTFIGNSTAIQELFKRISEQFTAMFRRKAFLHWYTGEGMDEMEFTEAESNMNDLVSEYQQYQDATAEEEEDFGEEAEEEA
Just the number in µM, nothing appended.

# compound, Kd, µM
data = [
    ("CC(=O)O[C@H]1C(=O)[C@@]2(C)[C@H]([C@H](OC(=O)c3ccccc3)[C@]3(O)C[C@H](OC(=O)[C@H](O)[C@@H](NC(=O)c4ccccc4)c4ccccc4)C(C)=C1C3(C)C)[C@]1(OC(C)=O)CO[C@@H]1C[C@@H]2O [paclitaxel]", 2.26),
]

Query compound follows.
Tell me measured Kd for O=c1c(O)c(-c2ccc(O)c(O)c2)oc2cc(O)ccc12 [fisetin] please.
1.59
